In this section, each of the compounds is paired with its reported gamma-GTP.
species: Rattus norvegicus; assay: Open TG-GATES - Regimen: Daily Repeat; assay type: toxicity, organism-based, Sprague-Dawley; design: regimen Daily Repeat, gender Male, age 6 weeks; details: in vivo, po, 1000 mg/kg, 72 h, tissue Plasma, route gavage, dose level High, time 3 day
Write it as a number; the unit IU/L goes unstated.

The examples below pair each entry with its known result.
>  <compound>
CCOc1ccc(NC(=O)CC(C)O)cc1 (stereo unspecified)

>  <gamma-GTP (IU/L)>
1.2

$$$$
>  <compound>
COc1ccc2[nH]c([S+]([O-])Cc3ncc(C)c(OC)c3C)nc2c1 (stereo unspecified)

>  <gamma-GTP (IU/L)>
2

$$$$
>  <compound>
CCOC(=O)CCC(=O)O[C@H]1[C@H](O[C@@H]2[C@@H](C)[C@H](O[C@H]3C[C@@](C)(OC)[C@@H](O)[C@H](C)O3)[C@@H](C)C(=O)O[C@H](CC)[C@@](C)(O)[C@H](O)[C@@H](C)C(=O)[C@H](C)C[C@@]2(C)O)O[C@H](C)C[C@@H]1N(C)C [ERYTHROMYCIN ETHYLSUCCINATE]

>  <gamma-GTP (IU/L)>
1.4

$$$$
>  <compound>
CC(C)OC(=O)C(C)(C)Oc1ccc(C(=O)c2ccc(Cl)cc2)cc1 [FENOFIBRATE]

>  <gamma-GTP (IU/L)>
1

$$$$
>  <compound>
COC1=CC(=O)C[C@@H](C)[C@]12Oc1c(Cl)c(OC)cc(OC)c1C2=O

>  <gamma-GTP (IU/L)>
1.4

$$$$

Next compound, gamma-GTP to be filled in.
Lab note: measured gamma-GTP of NC(N)=Nc1nc(CSCCC(N)=NS(N)(=O)=O)cs1 was 1

###

organism: Rattus norvegicus; experiment: Open TG-GATES - Regimen: Daily Repeat; assay type: toxicity, organism-based, Sprague-Dawley; design: regimen Daily Repeat, gender Male, age 6 weeks; details: in vivo, po, 100 mg/kg, […], tissue Plasma, route gavage, dose level Low, time 14 day
measured attribute: A/G
Write no unit; give the number alone.

>  <compound>
NC(N)=Nc1nc(CSCCC(N)=NS(N)(=O)=O)cs1

>  <A/G>
1.5

$$$$

Lab note: measured A/G of COC1=CC(=O)C[C@@H](C)[C@]12Oc1c(Cl)c(OC)cc(OC)c1C2=O was 1.5

Lab note: measured A/G of CCOc1ccc(NC(=O)CC(C)O)cc1 (centres undefined) was 0.8

Lab note: measured A/G of CCOC(=O)CCC(=O)O[C@H]1[C@H](O[C@@H]2[C@@H](C)[C@H](O[C@H]3C[C@@](C)(OC)[C@@H](O)[C@H](C)O3)[C@@H](C)C(=O)O[C@H](CC)[C@@](C)(O)[C@H](O)[C@@H](C)C(=O)[C@H](C)C[C@@]2(C)O)O[C@H](C)C[C@@H]1N(C)C [ERYTHROMYCIN ETHYLSUCCINATE] was 1.2

###

species: Rattus norvegicus; test: Open TG-GATES - Regimen: Single; assay type: toxicity, organism-based, Sprague-Dawley; design: regimen Single, gender Male, age 6 weeks; conditions: in vivo, po, 30 mg/kg, 6 h, tissue Blood, route gavage, dose level Middle
measured attribute: MCHC (%)
Write it as a number; the unit % goes unstated.

>  <molecule>
CC1=C(/C=C/C(C)=C/C=C/C(C)=C/CO)C(C)(C)CCC1 [RETINOL]

>  <recorded number>
34.5

$$$$

Lab note: measured MCHC of CN(C)CCN(Cc1cccs1)c1ccccn1 was 32.7

Lab note: measured MCHC of CN(C)CCCN1c2ccccc2CCc2ccc(Cl)cc21 [CLOMIPRAMINE] was 32.2

Lab note: measured MCHC of CN(C)CCCN1c2ccccc2CCc2ccccc21 [IMIPRAMINE] was 32.7

###

organism: Rattus norvegicus; assay: Open TG-GATES - Regimen: Daily Repeat; type: toxicity, organism-based, Sprague-Dawley; parameters: regimen Daily Repeat, gender Male, age 6 weeks; conditions: in vivo, po, 100 mg/kg, […], tissue Plasma, route gavage, dose level Low, time 7 day
Quick rule: GLC of at least 200 mg/dL means 1.0, below that means 0.0.

>  <compound>
NC(N)=Nc1nc(CSCCC(N)=NS(N)(=O)=O)cs1

>  <cat>
0.0

$$$$

Kindly determine if GLC recorded for COC1=CC(=O)C[C@@H](C)[C@]12Oc1c(Cl)c(OC)cc(OC)c1C2=O is above or exactly 200 mg/dL.
1.0

Kindly determine if GLC recorded for CCOc1ccc(NC(=O)CC(C)O)cc1 (stereo not given) is above or exactly 200 mg/dL.
0.0

###

species on record: Rattus norvegicus; experiment: Open TG-GATES - Regimen: Single; assay type: toxicity, organism-based, Sprague-Dawley; design: regimen Single, gender Male, age 6 weeks; settings: in vivo, po, 300 mg/kg, 9 h, tissue Blood, route gavage, dose level Middle
measured attribute: PT
Provide a numeric answer, followed by its unit.

>  <molecule>
CCOC(=O)CCC(=O)O[C@H]1[C@H](O[C@@H]2[C@@H](C)[C@H](O[C@H]3C[C@@](C)(OC)[C@@H](O)[C@H](C)O3)[C@@H](C)C(=O)O[C@H](CC)[C@@](C)(O)[C@H](O)[C@@H](C)C(=O)[C@H](C)C[C@@]2(C)O)O[C@H](C)C[C@@H]1N(C)C [ERYTHROMYCIN ETHYLSUCCINATE]

>  <PT>
15.6 s

$$$$

Lab note: measured PT of NC(N)=Nc1nc(CSCCC(N)=NS(N)(=O)=O)cs1 [FAMOTIDINE] was 12.1 s

Lab note: measured PT of COC1=CC(=O)C[C@@H](C)[C@]12Oc1c(Cl)c(OC)cc(OC)c1C2=O [GRISEOFULVIN] was 13.6 s

Lab note: measured PT of COc1ccc2[nH]c([S+]([O-])Cc3ncc(C)c(OC)c3C)nc2c1 (centres undefined) [OMEPRAZOLE] was 12.9 s

###

In this section, each of the compounds is paired with its reported TP.
species: Rattus norvegicus; test: Open TG-GATES - Regimen: Single; type: toxicity, organism-based, Sprague-Dawley; set-up: regimen Single, gender Male, age 6 weeks; conditions: in vivo, po, 1000 mg/kg, 9 h, tissue Plasma, route gavage, dose level High
Write it as a number; the unit g/dL goes unstated.

The examples below pair each entry with its known result.
>  <compound>
CC(C)OC(=O)C(C)(C)Oc1ccc(C(=O)c2ccc(Cl)cc2)cc1 [FENOFIBRATE]

>  <TP, g/dL>
5.3

$$$$
>  <compound>
COc1ccc2[nH]c([S+]([O-])Cc3ncc(C)c(OC)c3C)nc2c1 (stereo not given)

>  <TP, g/dL>
5.5

$$$$
>  <compound>
CCOC(=O)CCC(=O)O[C@H]1[C@H](O[C@@H]2[C@@H](C)[C@H](O[C@H]3C[C@@](C)(OC)[C@@H](O)[C@H](C)O3)[C@@H](C)C(=O)O[C@H](CC)[C@@](C)(O)[C@H](O)[C@@H](C)C(=O)[C@H](C)C[C@@]2(C)O)O[C@H](C)C[C@@H]1N(C)C [ERYTHROMYCIN ETHYLSUCCINATE]

>  <TP, g/dL>
5.5

$$$$
>  <compound>
NC(N)=Nc1nc(CSCCC(N)=NS(N)(=O)=O)cs1

>  <TP, g/dL>
5.4

$$$$

Next compound, TP to be filled in.
Lab note: measured TP of COC1=CC(=O)C[C@@H](C)[C@]12Oc1c(Cl)c(OC)cc(OC)c1C2=O was 5.5

###

species on record: Rattus norvegicus; test: Open TG-GATES - Regimen: Single; format: toxicity, organism-based, Sprague-Dawley; set-up: regimen Single, gender Male, age 6 weeks; details: in vivo, po, 0 mg/kg, 3 h, tissue Plasma, route gavage, dose level Control
measured attribute: TP
Provide a numeric answer, followed by its unit.

The examples below pair each entry with its known result.
>  <compound>
COc1ccc2[nH]c([S+]([O-])Cc3ncc(C)c(OC)c3C)nc2c1 (configuration not stated) [OMEPRAZOLE]

>  <TP>
5.3 g/dL

$$$$
>  <compound>
CN(C)CCCN1c2ccccc2CCc2ccc(Cl)cc21 [CLOMIPRAMINE]

>  <TP>
5.2 g/dL

$$$$
>  <compound>
CC(C)OC(=O)C(C)(C)Oc1ccc(C(=O)c2ccc(Cl)cc2)cc1 [FENOFIBRATE]

>  <TP>
5.2 g/dL

$$$$
>  <compound>
NC(N)=Nc1nc(CSCCC(N)=NS(N)(=O)=O)cs1 [FAMOTIDINE]

>  <TP>
5.4 g/dL

$$$$
>  <compound>
CCOC(=O)CCC(=O)O[C@H]1[C@H](O[C@@H]2[C@@H](C)[C@H](O[C@H]3C[C@@](C)(OC)[C@@H](O)[C@H](C)O3)[C@@H](C)C(=O)O[C@H](CC)[C@@](C)(O)[C@H](O)[C@@H](C)C(=O)[C@H](C)C[C@@]2(C)O)O[C@H](C)C[C@@H]1N(C)C [ERYTHROMYCIN ETHYLSUCCINATE]

>  <TP>
5.4 g/dL

$$$$

Lab note: measured TP of CN1C(=O)CN=C(c2ccccc2)c2cc(Cl)ccc21 [DIAZEPAM] was 5.5 g/dL

Lab note: measured TP of C[C@@H]1C[C@H]2[C@@H]3CCC4=CC(=O)C=C[C@]4(C)[C@@]3(F)[C@@H](O)C[C@]2(C)[C@@]1(O)C(=O)CO [DEXAMETHASONE] was 5.3 g/dL
